Values compiled from ChEMBL document CHEMBL5385869.

molecular target: Enoyl-[acyl-carrier-protein] reductase [NADH] (Mycobacterium tuberculosis, UniProt P9WGR1); assay: Competitive inhibition of Mycobacterium tuberculosis InhA using varying concentrations of DD-CoA as substrate assessed as inhibition constant for enzyme-inhibitor binary complex in presence of NADH by Lineweaver-Burk plot analysis
experimental.readout: Ki (nM)
Give bare numbers, in nM.

Please review the following examples before continuing.
Cc1cc(Nc2ccc(N3CCCCC3)cc2)c2cc(Br)ccc2n1 140
Cc1cc(Nc2ccc(N3CCC(C)CC3)cc2)c2cc(Br)ccc2n1 790
Cc1cc(Nc2ccc(N3CCCCC3)cc2)c2cc(Cl)ccc2n1 1330

What value of measured Ki is listed for `CSc1ccc2nc(C)cc(Nc3ccc(N4CCCCC4)cc3)c2c1` ?
620

###

Molecular target: Enoyl-[acyl-carrier-protein] reductase [NADH] (Mycobacterium tuberculosis)
Sequence (P9WGR1 whole entry): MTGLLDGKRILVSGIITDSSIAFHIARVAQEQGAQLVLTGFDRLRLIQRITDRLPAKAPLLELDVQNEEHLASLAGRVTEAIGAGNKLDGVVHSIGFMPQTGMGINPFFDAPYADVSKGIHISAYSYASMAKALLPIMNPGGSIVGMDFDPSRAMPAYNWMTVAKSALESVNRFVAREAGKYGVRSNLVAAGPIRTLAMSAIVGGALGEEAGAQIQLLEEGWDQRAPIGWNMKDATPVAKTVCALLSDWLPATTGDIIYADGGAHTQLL
Assay: Binding affinity to Mycobacterium tuberculosis InhA assessed as dissociation constant at 250 uM at 20 degreeC in presence of NADH by fluorescence spectroscopy
experimental.readout: pKd
Numbers only, as −log10 of the molar value.

What value of measured pKd is listed for `Cc1cc(Nc2ccc(N3CCCCC3)cc2)c2cc(Br)ccc2n1` ?
6.33

###

biological target: Enoyl-[acyl-carrier-protein] reductase [NADH] (Mycobacterium tuberculosis); assay: Binding affinity to Mycobacterium tuberculosis InhA assessed as change in entropy at 250 uM in presence of NADH by fluorescence spectroscopy
Consider the following compounds; for each one, report its deltaS.
Answers are plain numbers, in cal/mol/K.

Please review the following examples before continuing.
Cc1cc(Nc2ccc(N3CCCCC3)cc2)c2cc(Br)ccc2n1 -33.4
Cc1cc(Nc2ccc(N3CCCCC3)cc2)c2cc(Cl)ccc2n1 -49.8
CSc1ccc2nc(C)cc(Nc3ccc(N4CCCCC4)cc3)c2c1 -55.7

What value of measured deltaS is listed for `Cc1cc(Nc2ccc(N3CCC(C)CC3)cc2)c2cc(Br)ccc2n1` ?
8.3

###

Consider the following compounds; for each one, report its pKi.
molecular target: UniProtKB P9WGR1; experiment: Noncompetitive inhibition of Mycobacterium tuberculosis InhA using DD-CoA as substrate assessed as inhibition constant for enzyme-substrate-inhibitor ternary complex in presence of varying concentrations of NADH by double reciprocal plot analysis
One number for each entry, as −log10 of the molar value.

Cc1cc(Nc2ccc(N3CCC(C)CC3)cc2)c2cc(Br)ccc2n1 6.16
Cc1cc(Nc2ccc(N3CCCCC3)cc2)c2cc(Br)ccc2n1 6.82
Cc1cc(Nc2ccc(N3CCCCC3)cc2)c2cc(Cl)ccc2n1 6.34

Continue with the compound presented below.
What value of measured pKi is listed for `CSc1ccc2nc(C)cc(Nc3ccc(N4CCCCC4)cc3)c2c1` ?
6.39

###

target: Enoyl-[acyl-carrier-protein] reductase [NADH] (Mycobacterium tuberculosis, UniProt P9WGR1); test: Binding affinity to wild type Mycobacterium tuberculosis InhA assessed as inhibition constant for formation of enzyme-inhibitor complex in presence of NADH and DD-CoA by spectrophotometry based analysis
experimental.readout: pKi
One number for each entry, as −log10 of the molar value.

Enoyl-[acyl-carrier-protein] reductase [NADH] (Mycobacterium tuberculosis, UniProt P9WGR1) / pKi / NNC(=O)c1ccncc1 [ISONIAZID] : value?
7.80
